Provenance of the data: patent US9309212B2

Please go through the items and note down their IC50.
# studySystem: EBNA1 (Epstein-Barr virus)
# Construct: expressed in transfected cells; host or cells: 293T cells
# Sequence (P03211 whole entry): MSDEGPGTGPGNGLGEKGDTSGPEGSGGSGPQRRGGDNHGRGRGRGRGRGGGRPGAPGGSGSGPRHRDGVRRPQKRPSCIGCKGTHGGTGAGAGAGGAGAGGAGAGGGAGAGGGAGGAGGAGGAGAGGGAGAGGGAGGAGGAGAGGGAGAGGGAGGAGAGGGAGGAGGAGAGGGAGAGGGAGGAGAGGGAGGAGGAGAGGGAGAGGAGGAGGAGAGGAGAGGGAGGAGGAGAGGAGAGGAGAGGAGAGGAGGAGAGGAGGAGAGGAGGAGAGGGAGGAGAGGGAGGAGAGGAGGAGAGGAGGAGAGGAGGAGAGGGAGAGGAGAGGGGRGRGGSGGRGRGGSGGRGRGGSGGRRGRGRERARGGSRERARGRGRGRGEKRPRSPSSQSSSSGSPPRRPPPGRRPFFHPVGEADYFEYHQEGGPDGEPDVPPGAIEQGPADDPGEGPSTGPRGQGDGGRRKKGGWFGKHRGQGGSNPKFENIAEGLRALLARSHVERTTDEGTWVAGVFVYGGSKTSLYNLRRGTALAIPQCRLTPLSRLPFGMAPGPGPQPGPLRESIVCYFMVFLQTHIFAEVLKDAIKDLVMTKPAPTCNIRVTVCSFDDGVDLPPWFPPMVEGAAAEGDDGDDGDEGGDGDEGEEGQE
# assayProtocol: cell-based assay (EBNA1 transcription derepression assay, Qp-luciferase reporter in 293T cells)
# measurementSetup: final concentration range 125 μM-2 nM, 125000 nM = not active
Answers are plain numbers, in nM.

O=C(Nc1ccc2occc2c1)c1ccc(N2CCOCC2)cc1    298
O=C(Nc1ccc2occc2c1)c1ncccc1C(F)(F)F    1090

With those in mind, consider the next compound.
For reference, reported IC50 for O=C(Nc1ccc2occc2c1)c1ccc(F)cc1Cl stands at 18.9
